meta.source: patent US9023821B2

For each of the substances below, state its Level of intensity of expression in log2 measured with the Agilent chips, WD.
# Tested on: human airway epithelial cells (HAECs)
# protocol: Agilent miRNA chips, miRNA expression at four stages of differentiation of HAECs
# measurement context: stage WD; Table VI
# value in log2; strip the unit string

Entry under test: hsa-miR-425: human miRNA, SEQ ID No. 44 (AAUGACACGAUCACUCCCGUUGA; expressed or natural sequence; listed as Homo sapiens) . Its Level of intensity of expression in log2 measured with the Agilent chips, WD was 8.18

Entry under test: hsa-miR-125a-5p: human miRNA, SEQ ID No. 3 (UCCCUGAGACCCUUUAACCUGUGA; expressed or natural sequence; listed as Homo sapiens) . Its Level of intensity of expression in log2 measured with the Agilent chips, WD was 8.15

Entry under test: hsa-miR-26a: human miRNA, SEQ ID No. 28 (UUCAAGUAAUCCAGGAUAGGCU; expressed or natural sequence; listed as Homo sapiens) . Its Level of intensity of expression in log2 measured with the Agilent chips, WD was 10.65

Entry under test: hsa-miR-17: human miRNA, SEQ ID No. 11 (CAAAGUGCUUACAGUGCAGGUAG; expressed or natural sequence; listed as Homo sapiens) . Its Level of intensity of expression in log2 measured with the Agilent chips, WD was 7.81

Entry under test: hsa-miR-29a: human miRNA, SEQ ID No. 31 (UAGCACCAUCUGAAAUCGGUUA; expressed or natural sequence; listed as Homo sapiens) . Its Level of intensity of expression in log2 measured with the Agilent chips, WD was 10.85

Entry under test: hsa-miR-23b: human miRNA, SEQ ID No. 26 (AUCACAUUGCCAGGGAUUACC; expressed or natural sequence; listed as Homo sapiens) . Its Level of intensity of expression in log2 measured with the Agilent chips, WD was 10.64

Entry under test: hsa-miR-200a: human miRNA, SEQ ID No. 16 (UAACACUGUCUGGUAACGAUGU; expressed or natural sequence; listed as Homo sapiens) . Its Level of intensity of expression in log2 measured with the Agilent chips, WD was 10.84

Entry under test: hsa-miR-205: human miRNA, SEQ ID No. 20 (UCCUUCAUUCCACCGGAGUCUG; expressed or natural sequence; listed as Homo sapiens) . Its Level of intensity of expression in log2 measured with the Agilent chips, WD was 13.07

Entry under test: hsa-miR-29c: human miRNA, SEQ ID No. 32 (UAGCACCAUUUGAAAUCGGUUA; expressed or natural sequence; listed as Homo sapiens) . Its Level of intensity of expression in log2 measured with the Agilent chips, WD was 10.62

Entry under test: hsa-miR-92b: human miRNA, SEQ ID No. 49 (UAUUGCACUCGUCCCGGCCUCC; expressed or natural sequence; listed as Homo sapiens) . Its Level of intensity of expression in log2 measured with the Agilent chips, WD was 4.49

Entry under test: hsa-miR-365: human miRNA, SEQ ID No. 41 (UAAUGCCCCUAAAAAUCCUUAU; expressed or natural sequence; listed as Homo sapiens) . Its Level of intensity of expression in log2 measured with the Agilent chips, WD was 7.25

====

# System: human airway epithelial cells (HAECs)
# protocol: High-throughput sequencing (HTS) of miRNAs at four stages of differentiation of HAECs
# measurement context: healthy human airway epithelial tissue, stage WD
measured quantity: Level of intensity of expression in log2 At the differentiated stage (WD) measured in HTS (log2)
# value in log2; strip the unit string

Entry under test: hsa-miR-125a-5p: human miRNA, SEQ ID No. 3 (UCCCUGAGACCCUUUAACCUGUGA; expressed or natural sequence; listed as Homo sapiens) . Its Level of intensity of expression in log2 At the differentiated stage (WD) measured in HTS was 14.08

Entry under test: hsa-miR-193b: human miRNA, SEQ ID No. 14 (AACUGGCCCUCAAAGUCCCGCU; expressed or natural sequence; listed as Homo sapiens) . Its Level of intensity of expression in log2 At the differentiated stage (WD) measured in HTS was 11.67

Entry under test: hsa-miR-92b: human miRNA, SEQ ID No. 49 (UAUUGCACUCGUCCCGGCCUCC; expressed or natural sequence; listed as Homo sapiens) . Its Level of intensity of expression in log2 At the differentiated stage (WD) measured in HTS was 0.01

Entry under test: hsa-miR-26b: human miRNA, SEQ ID No. 29 (UUCAAGUAAUUCAGGAUAGGU; expressed or natural sequence; listed as Homo sapiens) . Its Level of intensity of expression in log2 At the differentiated stage (WD) measured in HTS was 6.81

Entry under test: hsa-miR-30d: human miRNA, SEQ ID No. 35 (UGUAAACAUCCCCGACUGGAAG; expressed or natural sequence; listed as Homo sapiens) . Its Level of intensity of expression in log2 At the differentiated stage (WD) measured in HTS was 8.76

====

# Tested on: human airway epithelial cells (HAECs)
# protocol: High-throughput sequencing (HTS) of miRNAs at four stages of differentiation of HAECs
# measurement context: HTS, ALI-D0
measured quantity: Abundance (%), D0
Your answer should be a number followed by the unit of measure.

Entry under test: hsa-miR-34c-5p: human miRNA, SEQ ID No. 40 (AGGCAGUGUAGUUAGCUGAUUGC; expressed or natural sequence; listed as Homo sapiens) . Its Abundance (%), D0 was 0.05%

Entry under test: hsa-miR-574-3p: human miRNA, SEQ ID No. 48 (CACGCUCAUGCACACACCCACA; expressed or natural sequence; listed as Homo sapiens) . Its Abundance (%), D0 was 2.80%

Entry under test: hsa-miR-29c: human miRNA, SEQ ID No. 32 (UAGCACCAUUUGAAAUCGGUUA; expressed or natural sequence; listed as Homo sapiens) . Its Abundance (%), D0 was 2.84%

Entry under test: hsa-miR-378: human miRNA, SEQ ID No. 43 (ACUGGACUUGGAGUCAGAAGG; expressed or natural sequence; listed as Homo sapiens) . Its Abundance (%), D0 was 0.29%

Entry under test: hsa-miR-140-3p: human miRNA, SEQ ID No. 5 (UACCACAGGGUAGAACCACGG; expressed or natural sequence; listed as Homo sapiens) . Its Abundance (%), D0 was 1.17%

====

For each of the substances below, state its Level of intensity of expression in log2 measured by high-throughput sequencing, D0.
# Test system: human airway epithelial cells (HAECs)
# protocol: High-throughput sequencing (HTS) of miRNAs at four stages of differentiation of HAECs
# measurement context: stage D0; Table VI
Your answer should be a number followed by the unit of measure.

Entry under test: hsa-miR-30d: human miRNA, SEQ ID No. 35 (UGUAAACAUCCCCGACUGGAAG; expressed or natural sequence; listed as Homo sapiens) . Its Level of intensity of expression in log2 measured by high-throughput sequencing, D0 was 9.12 log2

Entry under test: hsa-miR-205: human miRNA, SEQ ID No. 20 (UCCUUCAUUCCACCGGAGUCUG; expressed or natural sequence; listed as Homo sapiens) . Its Level of intensity of expression in log2 measured by high-throughput sequencing, D0 was 14.61 log2

Entry under test: hsa-miR-200a: human miRNA, SEQ ID No. 16 (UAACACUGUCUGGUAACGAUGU; expressed or natural sequence; listed as Homo sapiens) . Its Level of intensity of expression in log2 measured by high-throughput sequencing, D0 was 9.02 log2

====

# System: human airway epithelial cells (HAECs)
# protocol: Agilent miRNA chips, miRNA expression at four stages of differentiation of HAECs
# measurement context: stage D7; Table VI
measured quantity: Level of intensity of expression in log2 measured with the Agilent chips, D7 (log2)
# value in log2; strip the unit string

Entry under test: hsa-miR-96: human miRNA, SEQ ID No. 51 (UUUGGCACUAGCACAUUUUUGCU; expressed or natural sequence; listed as Homo sapiens) . Its Level of intensity of expression in log2 measured with the Agilent chips, D7 was 9.71

Entry under test: hsa-miR-151-5p: human miRNA, SEQ ID No. 8 (UCGAGGAGCUCACAGUCUAGU; expressed or natural sequence; listed as Homo sapiens) . Its Level of intensity of expression in log2 measured with the Agilent chips, D7 was 8.54

Entry under test: hsa-miR-22: human miRNA, SEQ ID No. 23 (AAGCUGCCAGUUGAAGAACUGU; expressed or natural sequence; listed as Homo sapiens) . Its Level of intensity of expression in log2 measured with the Agilent chips, D7 was 11.75

====

For each of the substances below, state its Level of intensity of expression in log2 measured with the Agilent chips, D7.
# Tested on: human airway epithelial cells (HAECs)
# protocol: Agilent miRNA chips, miRNA expression at four stages of differentiation of HAECs
# measurement context: stage D7; Table VI
# value in log2; strip the unit string

Entry under test: hsa-miR-191: human miRNA, SEQ ID No. 13 (CAACGGAAUCCCAAAAGCAGCUG; expressed or natural sequence; listed as Homo sapiens) . Its Level of intensity of expression in log2 measured with the Agilent chips, D7 was 2.97

Entry under test: hsa-miR-193b: human miRNA, SEQ ID No. 14 (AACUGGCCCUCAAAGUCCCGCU; expressed or natural sequence; listed as Homo sapiens) . Its Level of intensity of expression in log2 measured with the Agilent chips, D7 was 7.95

Entry under test: hsa-miR-365: human miRNA, SEQ ID No. 41 (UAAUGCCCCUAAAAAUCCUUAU; expressed or natural sequence; listed as Homo sapiens) . Its Level of intensity of expression in log2 measured with the Agilent chips, D7 was 8.41

Entry under test: hsa-miR-30d: human miRNA, SEQ ID No. 35 (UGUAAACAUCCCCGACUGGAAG; expressed or natural sequence; listed as Homo sapiens) . Its Level of intensity of expression in log2 measured with the Agilent chips, D7 was 8.94

Entry under test: hsa-miR-939: human miRNA, SEQ ID No. 50 (UGGGGAGCUGAGGCUCUGGGGGUG; expressed or natural sequence; listed as Homo sapiens) . Its Level of intensity of expression in log2 measured with the Agilent chips, D7 was 8.04

Entry under test: hsa-miR-99a: human miRNA, SEQ ID No. 52 (AACCCGUAGAUCCGAUCUUGUG; expressed or natural sequence; listed as Homo sapiens) . Its Level of intensity of expression in log2 measured with the Agilent chips, D7 was 7.35

Entry under test: hsa-miR-205: human miRNA, SEQ ID No. 20 (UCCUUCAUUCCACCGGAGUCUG; expressed or natural sequence; listed as Homo sapiens) . Its Level of intensity of expression in log2 measured with the Agilent chips, D7 was 14.18

Entry under test: hsa-miR-148a: human miRNA, SEQ ID No. 7 (UCAGUGCACUACAGAACUUUGU; expressed or natural sequence; listed as Homo sapiens) . Its Level of intensity of expression in log2 measured with the Agilent chips, D7 was 9.41

Entry under test: hsa-let-7e: human miRNA, SEQ ID No. 160 (UGAGGUAGGAGGUUGUAUAGUU; expressed or natural sequence; listed as Homo sapiens) . Its Level of intensity of expression in log2 measured with the Agilent chips, D7 was 9.91

Entry under test: hsa-let-7g: human miRNA, SEQ ID No. 162 (UGAGGUAGUAGUUUGUACAGUU; expressed or natural sequence; listed as Homo sapiens) . Its Level of intensity of expression in log2 measured with the Agilent chips, D7 was 11.12

Entry under test: hsa-miR-27b: human miRNA, SEQ ID No. 30 (UUCACAGUGGCUAAGUUCUGC; expressed or natural sequence; listed as Homo sapiens) . Its Level of intensity of expression in log2 measured with the Agilent chips, D7 was 11.03
